Molecular target: HCV NS3-NS4A protease (Hepatitis C virus genotype 1a, UniProt P27958)
Construct: The buffer, KK4A, DTT, and tNS3 were combined
Sequence (P27958 1658-1711): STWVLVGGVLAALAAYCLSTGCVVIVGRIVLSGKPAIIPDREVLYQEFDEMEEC
Sequence (P27958 1027-1208): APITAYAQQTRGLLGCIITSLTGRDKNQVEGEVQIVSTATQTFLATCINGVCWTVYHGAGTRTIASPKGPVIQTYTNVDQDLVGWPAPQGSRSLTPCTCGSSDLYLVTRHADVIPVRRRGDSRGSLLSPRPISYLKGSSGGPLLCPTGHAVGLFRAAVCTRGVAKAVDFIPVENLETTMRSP
Assay: HCV Ki Assay (enzyme, Example 5)
Details: Ki values, tested according to Example 5 (enzyme); 5AB substrate, tNS3 with KK4A
Description: HPLC Microbore Method for Separation of 5AB Substrate and Products NH2-Glu-Asp-Val-Val-(alpha)Abu-Cys-Ser-Met-Ser-Tyr-COOH A stock solution of 20 mM 5AB (or concentration of your choice) was made in DMSO w/0.2M DTT. This was stored in aliquots at −20 C. Buffer: 50 mM HEPES, pH 7.8; 20% glycerol; 100 mM NaCl Total assay volume was 100 μL The buffer, KK4A, DTT, and tNS3 were combined; distributed 78 μL each into wells of 96 well plate. This was incubated at 30 C for ˜5-10 min. […]
quantity.measured: Ki

CCC[C@H](NC(=O)[C@@H]1C[C@@H](Oc2ccccc2-c2ccccc2)CN1C(=O)[C@@H](NC(=O)[C@@H](NC(=O)c1cnccn1)C1CCCCC1)C(C)(C)C)C(=O)C(=O)NC1CC1
> 300 nM
CCC[C@H](NC(=O)C1C[C@@H](Oc2ccc(Cl)cc2Cl)CN1C(=O)[C@@H](NC(=O)[C@@H](NC(=O)c1cnccn1)C1CCCCC1)C(C)(C)C)C(=O)C(=O)NC1CC1 (stereo partly drawn)
100 to 300 nM

Return the recorded Ki value; entry: CCC[C@H](NC(=O)[C@@H]1C[C@@H](Oc2ccc(OC)c3ccccc23)CN1C(=O)[C@@H](NC(=O)[C@@H](NC(=O)c1cnccn1)C1CCCCC1)C(C)(C)C)C(=O)C(=O)NC1CC1
< 100 nM

###

Biological target: HCV NS3-NS4A protease (Hepatitis C virus genotype 1a)
Construct: The buffer, KK4A, DTT, and tNS3 were combined
Assay: HCV Ki Assay (enzyme, Example 5)
Conditions: Ki values, tested according to Example 5 (enzyme); 5AB substrate, tNS3 with KK4A
Measured Ki of individual entries

CCC[C@H](NC(=O)[C@@H]1C[C@@H](Oc2cccc(-c3ccccc3)c2)CN1C(=O)[C@@H](NC(=O)[C@@H](NC(=O)c1cnccn1)C1CCCCC1)C(C)(C)C)C(=O)C(=O)NC1CC1
< 100 nM
CCC[C@H](NC(=O)[C@@H]1C[C@@H](Oc2ccc(Cl)cn2)CN1C(=O)[C@@H](NC(=O)[C@@H](NC(=O)[C@H](C)NC(=O)OC)C1CCCCC1)C(C)(C)C)C(=O)C(=O)NC1CC1
< 100 nM
CCCC(NC(=O)[C@H]1C[C@H](Oc2cc(C(F)(F)F)ncn2)CN1C(=O)C(NC(=O)C(NC(=O)c1cnccn1)C1CCCCC1)C(C)(C)C)C(=O)C(=O)NC1CC1 (some centres unmarked)
100 to 300 nM
CCC[C@H](NC(=O)[C@@H]1C[C@@H](Oc2ccc(OC(F)(F)F)cc2)CN1C(=O)[C@@H](NC(=O)[C@@H](NC(=O)c1cnccn1)C1CCCCC1)C(C)(C)C)C(=O)C(=O)NC1CC1
100 to 300 nM

Now let's try a different one.
Determine its reported Ki: CCC[C@H](NC(=O)[C@@H]1C[C@@H](Oc2ccc(Cl)cn2)CN1C(=O)[C@@H](NC(=O)[C@@H](NC(=O)c1cnccn1)C1CCCCC1)C(C)(C)C)C(=O)C(=O)NC1CC1
< 100 nM

###

Target: HCV NS3-NS4A protease (Hepatitis C virus genotype 1a, UniProt P27958)
Construct: The buffer, KK4A, DTT, and tNS3 were combined
Experiment: HCV Ki Assay (enzyme, Example 5)
Conditions: Ki values, tested according to Example 5 (enzyme); 5AB substrate, tNS3 with KK4A
pKi: −log10 of the molar value.
quantity.measured: pKi

CCC[C@H](NC(=O)[C@@H]1C[C@@H](Oc2ccc(Cl)c3ccccc23)CN1C(=O)[C@@H](NC(=O)[C@@H](NC(=O)c1cnccn1)C1CCCCC1)C(C)(C)C)C(=O)C(=O)NC1CC1 [Compound 40]
> 7.00
CCC[C@H](NC(=O)[C@@H]1C[C@@H](Oc2ccccc2Cl)CN1C(=O)[C@@H](NC(=O)[C@@H](NC(=O)c1cnccn1)C1CCCCC1)C(C)(C)C)C(=O)C(=O)NC1CC1 [Compound 20]
> 7.00

Kindly consider the entry below.
Input CCC[C@H](NC(=O)[C@@H]1C[C@@H](Oc2ccc(NC(C)=O)cc2)CN1C(=O)[C@@H](NC(=O)[C@@H](NC(=O)c1cnccn1)C1CCCCC1)C(C)(C)C)C(=O)C(=O)NC1CC1 [Compound 51] , output reported pKi.
> 7.00

###

Molecular target: HCV NS3-NS4A protease (Hepatitis C virus genotype 1a, UniProt P27958)
Construct: The buffer, KK4A, DTT, and tNS3 were combined
Assay: HCV Ki Assay (enzyme, Example 5)
Settings: Ki values, tested according to Example 5 (enzyme); 5AB substrate, tNS3 with KK4A
quantity.measured: Ki

Worked examples follow.
CCC[C@H](NC(=O)C1C[C@@H](Oc2ccccc2F)CN1C(=O)[C@@H](NC(=O)[C@@H](NC(=O)c1cnccn1)C1CCCCC1)C(C)(C)C)C(=O)C(=O)NC1CC1 (stereo partly drawn)
100 to 300 nM
CCC[C@H](NC(=O)[C@@H]1C[C@@H](Oc2cccc(NC(C)=O)c2)CN1C(=O)[C@@H](NC(=O)[C@@H](NC(=O)c1cnccn1)C1CCCCC1)C(C)(C)C)C(=O)C(=O)NC1CC1
< 100 nM

Now for a further molecule.
Provide measured Ki value, entry: CCC[C@H](NC(=O)[C@@H]1C[C@@H](Oc2ccnc3cc(OC)ccc23)CN1C(=O)[C@@H](NC(=O)[C@@H](NC(=O)c1cnccn1)C1CCCCC1)C(C)(C)C)C(=O)C(=O)NC1CC1
< 100 nM

###

Entries and their Ki
Biological target: HCV NS3-NS4A protease (Hepatitis C virus genotype 1a, UniProt P27958)
Construct: The buffer, KK4A, DTT, and tNS3 were combined
Assay: HCV Ki Assay (enzyme, Example 5)
Format: biochemical
Details: Ki values, tested according to Example 5 (enzyme); 5AB substrate, tNS3 with KK4A

CCC[C@H](NC(=O)[C@@H]1C[C@@H](Oc2cccc(C(=O)OC)c2)CN1C(=O)[C@@H](NC(=O)[C@@H](NC(=O)c1cnccn1)C1CCCCC1)C(C)(C)C)C(=O)C(=O)NC1CC1 [Compound 45]
< 100 nM
CCCC(NC(=O)[C@H]1C[C@H](Oc2ccc(C(F)(F)F)cn2)CN1C(=O)C(NC(=O)C(NC(=O)c1cnccn1)C1CCCCC1)C(C)(C)C)C(=O)C(=O)NC1CC1 (stereo partly shown) [Compound 27]
> 300 nM
CCC[C@H](NC(=O)[C@@H]1C[C@@H](Oc2ccccn2)CN1C(=O)[C@@H](NC(=O)[C@@H](NC(=O)c1cnccn1)C1CCCCC1)C(C)(C)C)C(=O)C(=O)NC1CC1 [Compound 58]
< 100 nM

Alright, here's another molecule for you.
Answer with reported Ki of CCCC(NC(=O)[C@H]1C[C@H](Oc2ncccc2[N+](=O)[O-])CN1C(=O)C(NC(=O)C(NC(=O)c1cnccn1)C1CCCCC1)C(C)(C)C)C(=O)C(=O)NC1CC1 (stereo partly shown) [Compound 33]
100 to 300 nM

###

Target: HCV NS3-NS4A protease (Hepatitis C virus genotype 1a, UniProt P27958)
Construct: The buffer, KK4A, DTT, and tNS3 were combined
Experiment: HCV Ki Assay (enzyme, Example 5)
Conditions: Ki values, tested according to Example 5 (enzyme); 5AB substrate, tNS3 with KK4A
pKi: −log10 of the molar value.
Property: pKi; scope: individual compounds

CCC[C@H](NC(=O)[C@@H]1C[C@@H](Oc2cccc3ccccc23)CN1C(=O)[C@@H](NC(=O)[C@@H](NC(=O)c1cnccn1)C1CCCCC1)C(C)(C)C)C(=O)C(=O)NC1CC1
> 7.00
CCC[C@H](NC(=O)C1C[C@@H](Oc2cc(F)ccc2F)CN1C(=O)[C@@H](NC(=O)[C@@H](NC(=O)c1cnccn1)C1CCCCC1)C(C)(C)C)C(=O)C(=O)NC1CC1 (some centres unmarked)
6.52 to 7.00
CCC[C@H](NC(=O)[C@@H]1C[C@@H](Oc2cccc(C(F)(F)F)c2)CN1C(=O)[C@@H](NC(=O)[C@@H](NC(=O)c1cnccn1)C1CCCCC1)C(C)(C)C)C(=O)C(=O)NC1CC1
6.52 to 7.00
CCC[C@H](NC(=O)[C@@H]1C[C@@H](Oc2ccc(Cl)cn2)CN1C(=O)[C@@H](NC(=O)[C@@H](NC(=O)c1cnccn1)C1CCCCC1)C(C)(C)C)C(=O)C(=O)CC(C)C
< 6.52

With those in mind, consider the next compound.
Return reported pKi. Input compound: CCC[C@H](NC(=O)[C@@H]1C[C@@H](Oc2ccc(C(=O)N3CCN(C(=O)OCc4ccccc4)CC3)cc2)CN1C(=O)[C@@H](NC(=O)[C@@H](NC(=O)c1cnccn1)C1CCCCC1)C(C)(C)C)C(=O)C(=O)NC1CC1
6.52 to 7.00
